TARGET ENTITY: LRRK2 (Homo sapiens, UniProt Q5S007, G2019S)
Construct: purchased Invitrogen PV4882 (lot 567054A)
Sequence (Q5S007 whole entry G2019S): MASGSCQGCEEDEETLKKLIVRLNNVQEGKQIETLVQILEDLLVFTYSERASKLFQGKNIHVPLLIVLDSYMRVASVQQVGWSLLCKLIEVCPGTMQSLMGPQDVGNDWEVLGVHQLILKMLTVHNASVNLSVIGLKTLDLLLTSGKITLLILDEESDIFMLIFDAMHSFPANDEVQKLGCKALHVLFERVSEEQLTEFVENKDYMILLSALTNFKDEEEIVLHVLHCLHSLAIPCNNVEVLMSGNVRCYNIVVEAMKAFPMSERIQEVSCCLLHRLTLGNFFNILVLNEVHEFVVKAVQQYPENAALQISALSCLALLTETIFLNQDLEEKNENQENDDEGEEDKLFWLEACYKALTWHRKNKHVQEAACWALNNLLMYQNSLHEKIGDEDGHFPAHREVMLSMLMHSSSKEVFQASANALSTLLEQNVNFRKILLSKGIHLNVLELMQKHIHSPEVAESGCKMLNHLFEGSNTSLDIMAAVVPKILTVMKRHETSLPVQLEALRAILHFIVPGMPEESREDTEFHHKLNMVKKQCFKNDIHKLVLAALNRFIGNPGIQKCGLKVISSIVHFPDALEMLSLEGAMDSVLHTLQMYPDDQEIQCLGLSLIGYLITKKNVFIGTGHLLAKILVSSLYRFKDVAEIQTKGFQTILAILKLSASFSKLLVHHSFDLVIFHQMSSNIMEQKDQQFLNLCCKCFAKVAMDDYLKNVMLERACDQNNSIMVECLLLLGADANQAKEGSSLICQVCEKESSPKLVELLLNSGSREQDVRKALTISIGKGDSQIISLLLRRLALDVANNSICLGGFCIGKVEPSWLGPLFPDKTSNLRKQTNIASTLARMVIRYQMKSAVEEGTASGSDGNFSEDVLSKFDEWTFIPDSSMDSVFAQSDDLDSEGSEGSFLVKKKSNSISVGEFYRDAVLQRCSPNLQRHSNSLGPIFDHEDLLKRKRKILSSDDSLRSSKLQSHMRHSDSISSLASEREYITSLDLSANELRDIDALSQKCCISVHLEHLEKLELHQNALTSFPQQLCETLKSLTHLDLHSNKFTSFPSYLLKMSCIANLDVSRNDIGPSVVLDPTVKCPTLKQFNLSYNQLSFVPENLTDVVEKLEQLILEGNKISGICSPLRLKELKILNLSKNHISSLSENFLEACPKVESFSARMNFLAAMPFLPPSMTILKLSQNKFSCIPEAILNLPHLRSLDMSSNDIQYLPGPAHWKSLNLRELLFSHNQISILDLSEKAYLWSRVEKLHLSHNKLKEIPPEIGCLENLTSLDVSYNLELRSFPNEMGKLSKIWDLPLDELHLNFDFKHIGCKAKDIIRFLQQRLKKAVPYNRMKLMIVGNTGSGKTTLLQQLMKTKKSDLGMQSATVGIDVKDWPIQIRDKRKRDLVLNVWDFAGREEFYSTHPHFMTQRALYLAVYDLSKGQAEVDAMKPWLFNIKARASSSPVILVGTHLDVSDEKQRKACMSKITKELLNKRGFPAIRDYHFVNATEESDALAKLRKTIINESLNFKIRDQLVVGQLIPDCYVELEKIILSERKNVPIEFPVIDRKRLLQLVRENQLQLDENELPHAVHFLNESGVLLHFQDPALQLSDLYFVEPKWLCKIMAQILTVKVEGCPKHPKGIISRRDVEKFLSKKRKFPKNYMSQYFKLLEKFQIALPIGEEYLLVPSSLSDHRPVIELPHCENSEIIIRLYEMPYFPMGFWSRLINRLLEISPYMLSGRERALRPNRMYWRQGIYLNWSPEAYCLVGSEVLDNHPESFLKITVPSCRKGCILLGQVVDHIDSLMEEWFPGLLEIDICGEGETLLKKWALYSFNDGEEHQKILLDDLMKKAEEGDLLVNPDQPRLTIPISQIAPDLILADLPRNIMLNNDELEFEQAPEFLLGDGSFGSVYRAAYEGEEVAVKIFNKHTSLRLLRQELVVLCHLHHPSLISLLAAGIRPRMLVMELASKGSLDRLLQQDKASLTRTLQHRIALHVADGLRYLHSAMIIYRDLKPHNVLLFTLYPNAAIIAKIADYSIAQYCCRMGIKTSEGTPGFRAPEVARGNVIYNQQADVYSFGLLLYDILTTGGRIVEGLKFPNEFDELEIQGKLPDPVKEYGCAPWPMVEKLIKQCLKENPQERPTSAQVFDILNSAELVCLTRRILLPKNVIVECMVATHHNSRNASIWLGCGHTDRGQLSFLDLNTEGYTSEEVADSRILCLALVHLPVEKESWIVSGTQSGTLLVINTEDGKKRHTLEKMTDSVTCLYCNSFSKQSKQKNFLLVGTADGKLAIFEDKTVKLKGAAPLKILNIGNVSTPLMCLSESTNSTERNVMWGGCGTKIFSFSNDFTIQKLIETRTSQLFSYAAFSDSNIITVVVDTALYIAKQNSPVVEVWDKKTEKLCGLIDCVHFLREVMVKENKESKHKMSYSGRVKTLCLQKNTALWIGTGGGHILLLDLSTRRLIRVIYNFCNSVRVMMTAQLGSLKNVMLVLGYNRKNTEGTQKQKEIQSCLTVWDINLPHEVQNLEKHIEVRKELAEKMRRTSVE
TEST PROTOCOL: In Vitro LRRK2 Assay (LabChip 3000, fluorescently-labeled peptide substrate, ATP)
Type: biochemical
TEST CONDITIONS: read-out: LRRK2 Ki (KI), Table 7
Would you kindly list pKi for each of these compounds?
Give bare numbers, as −log10 of the molar value.

Examples from the recorded data:
INSERT INTO results (smi, recorded_result) VALUES
  ('CC(C)n1cc(Nc2ncc(Cl)c(OC3CCOCC3)n2)cn1', 7.48),
  ('Cc1c(Nc2ncc(Cl)c(OCC(F)F)n2)cnn1C', 7.62),
  ('COc1nc(Nc2cn(-c3ccccc3)nc2C)ncc1Cl', 8.64),
  ('COc1nc(Nc2cnn(C3CCOCC3)c2Cl)ncc1Cl', 8.18);

Kindly consider the entry below.
Task: Need pKi, item `COc1nc(Nc2cnn(C(C)(C)C#N)c2C)ncc1Cl`
Output: 7.80

Recorded values, source patent US8815882B2.
